System: HOP-92 NSCLC
Assay: NCI tumour cell line growth inhibition, 48 h
Test Readout: TGI

Below, each entry is followed by its recorded TGI result.
{"Compound": "C=CC12CN(C)C3C4COC(CC41)C1(C(=O)Nc4ccccc41)C32 (stereo unspecified)", "Target Or Test System": "HOP-92 NSCLC", "Result": "> 200 µM"}
{"Compound": "O=C1N[C@@H]([C@H](CCCCCO)OC(=O)c2ccccc2)CO1", "Target Or Test System": "HOP-92 NSCLC", "Result": "> 100 µM"}
{"Compound": "CC[CH2][Pb]([CH2]CC)([CH2]CC)[NH]S(=O)(=O)c1ccc(C)cc1", "Target Or Test System": "HOP-92 NSCLC", "Result": "0.161 µM"}

Quick batch: TGI for everything below.
1. Clc1ncnc2c1nc(C#Cc1ccccc1)n2Cc1ccccc1
2. O=C(CC(C(=O)c1ccsc1)c1ccccc1)c1cccs1 (stereo unspecified)

## Output
1: 59.9 µM; 2: > 100 µM

## Input Using the record for CSc1nc(-c2ccccc2)c2c(n1)-c1ccccc1CC2 , report its TGI.
## Output > 100 µM

---

Please provide measured TGI for the entries that follow.
Tested on: MOLT-4 leukemia
Experiment: NCI tumour cell line growth inhibition, 48 h

{"Molecule": "COc1ccc(C2NC3=C(CCCC3)C3(C#N)C(=O)N=C(N)C23C#N)cc1 (stereo not given)", "TGI": "> 100 µM"}
{"Molecule": "CC(C)=CC(=O)CC(=O)C(=O)Nc1ccc(Cl)c(Cl)c1", "TGI": "> 100 µM"}

State the recorded TGI for every item in the following list.
1. CN(C)C(=C1c2cc([N+](=O)[O-])ccc2-c2ccc([N+](=O)[O-])cc21)N(C)C
2. CCOC(=O)N1CCN(S(=O)(=O)c2oc(-c3ccc(Cl)cc3)nc2C#N)CC1

## Output
> 100 µM
4.35 µM

Go through the list and state TGI for each entry.
1. COc1ccc(-c2c(C#N)c(S)n(C3OC(CO)C(O)C(O)C3O)c(=O)c2C#N)cc1 (stereo not given)
2. CC(C)(Br)C(=O)/C=C/c1ccccc1
3. NC1=Nc2ccccc2Sc2nnc(-c3ccc(Cl)cc3)n21
4. Nc1nnc(-c2ccco2)c(-c2ccco2)n1
5. COc1ccc2c(c1)nc(N)c1c3cccnc3cn21
6. O=[N+]([O-])/C(C(Cl)=C(Cl)Cl)=C1/OCCS1

## Output
> 100 µM
> 43.7 µM
72.2 µM
> 100 µM
> 100 µM
41.2 µM

Look up TGI for the entries below, preserving their order.
1. O=C1CCC2(c3ccccc3)Nc3cc(Cl)ccc3N12 (stereo not given)
2. O=C1c2ccccc2C(=O)C1C(c1ccc([N+](=O)[O-])cc1)C1C(=O)c2ccccc2C1=O
3. Nc1nc(OCc2ccccc2)nc2[nH]ncc12
4. N#Cc1ccc(OCc2ccc3nc(-c4ccccc4)c(Cl)nc3c2)cc1
5. CC(=O)C1=C([O-])C(C)OC1=O.CC(=O)C1=C([O-])C(C)OC1=O.[NH-]C1CCCC[C@H]1[NH-].[Pt+4] (stereo not given)

## Output
1: 57.9 µM; 2: > 100 µM; 3: > 100 µM; 4: > 100 µM; 5: 53.9 µM

---

Record form. Attribute: TGI. Fill in for each entry.
Tested on: MDA-N
Assay: NCI tumour cell line growth inhibition, 48 h

# annotated cases, reported TGI shown
{"Compound": "O=C(O)c1cc2c(s1)C(=O)c1sccc1C2=O", "Target Or Test System": "MDA-N", "TGI": "1.68 µM"}
{"Compound": "O=C(CC(C(=O)c1ccsc1)c1ccccc1)c1cccs1 (stereo unspecified)", "Target Or Test System": "MDA-N", "TGI": "> 100 µM"}
{"Compound": "Cc1ccc(NC(=O)CC(=O)n2nc(C)c(N=Nc3ccc(S(=O)(=O)CCOS(=O)(=O)O)cc3)c2C)cc1", "Target Or Test System": "MDA-N", "TGI": "> 100 µM"}

For each entry beneath this line, provide reported TGI.
1. O=C(O)C/C(=C\c1ccccc1)C(=O)O
2. O=[N+]([O-])/C(C(Cl)=C(Cl)Cl)=C1/OCCS1
3. NC1=Nc2ccccc2Sc2nnc(-c3ccc(Cl)cc3)n21

## Output
1: > 100 µM; 2: > 100 µM; 3: > 100 µM

---

Tested on: HOP-92 NSCLC
Assay: NCI tumour cell line growth inhibition, 48 h
Test Readout: TGI (µM)
Numbers only, in µM.

Some molecules with known TGI results, for comparison:
{"Molecule": "CC1CC[C@@]2(OC1)OC1C[C@H]3[C@@H]4CC[C@H]5CC(OC6OC(CO)C(OC7OC(CO)C(O)C(O)C7O)C(O)C6O)CCC5(C)[C@H]4CCC3(C)C1[C@@H]2C (stereo partly specified)", "U": "µM", "TGI": 16.5}
{"Molecule": "Oc1cc(Cl)ccc1Oc1ccc(Cl)cc1Cl", "U": "µM", "TGI": 5.69}
{"Molecule": "O=c1cccccc1NCCCCCCCCCNc1cccccc1=O", "U": "µM", "TGI": 41.6}
{"Molecule": "Clc1ccc(CN2COc3c(cc(Cl)c4cccnc34)C2)cc1", "U": "µM", "TGI": 12.9}
{"Molecule": "Cn1cc(-c2ccc(CNc3cc(-c4cnc5cc(OCCCN6CCCC6)ccn45)ncn3)cc2)cn1", "U": "µM", "TGI": 22.2}

Parameters: items (list). Returns: TGI for each item.
1. COc1cc(/C=C(/c2ccccc2)[N+](=O)[O-])c(OC)c2c1OCO2
2. N#CC1C(N)=NNC12Nc1ccccc1N2 (stereo unspecified)
3. CC(=O)OC1C2(CC3N4C(=O)C5(CO)SSC4(CC31O)C(=O)N5C)OC(C)C(C)(C)C2=O (stereo unspecified)
4. Cc1cn2c(/C=N/N/C(N)=N\N)c(-c3ccc(Cl)c([N+](=O)[O-])c3)nc2s1
5. O=C(NN1C(=O)CSC1c1ccc(Cl)cc1)c1[nH]c2ccc(F)cc2c1-c1ccccc1 (stereo unspecified)

## Output
[3.2, 34.5, 0.214, 13.3, 6.6]

---

System: SF-295 CNS
Test: NCI tumour cell line growth inhibition, 48 h
Test Readout: TGI

{"Molecule": "Cc1ccc2c(c1)ncn2-c1ncnc2c1CC(C)c1ccccc1N2C (stereo not given)", "TGI": "12.2 µM"}

Your task in this section: give TGI for each listed record.
1. O=C(Nc1ccc2c(c1)oc(=O)c1ccccc12)C(Cl)Cl
2. CCCCCCCCCCCCC(=O)[O-].CCCCCCCCCCCCC(=O)[O-].CCCCCCCCCCCCC(=O)[O-].CCCCCCCCCCCCC(=O)[O-].[Mo+2].[Mo+2]
3. CSCC[C@H]1C(=O)N=C(N)N1C(=O)OCc1ccccc1

## Output
1: > 100 µM; 2: 27.7 µM; 3: > 100 µM

---

System: HS 578T breast
Assay: NCI tumour cell line growth inhibition, 48 h
Test Readout: TGI

{"Compound": "C=C[C@]1(C)C=C2C(=O)[C@@]3(O)OC[C@@]4(CCCC(C)(C)C43O)C2(O)C(O)C1 (stereo partly specified)", "TGI": "22.2 µM"}
{"Compound": "NC(N)=NC(N)=Nc1c(F)c(F)c(F)c(F)c1F", "TGI": "> 100 µM"}
{"Compound": "O=C1C(=O)N(C2CCCCC2)C(=S)N1C1CCCCC1", "TGI": "> 100 µM"}
{"Compound": "CCCCCCCCCCCC1N=C(N)NC(CCCO)=C1C(=O)OC (stereo unspecified)", "TGI": "3.39 µM"}
{"Compound": "CC(C)(Br)C(=O)/C=C/c1ccccc1", "TGI": "> 60.3 µM"}

# evaluate next
## Input Return TGI measured with HS 578T breast given this compound: Cc1ncc([N+](=O)[O-])n1CCNC(=O)CCCn1cnc([N+](=O)[O-])n1
## Output > 100 µM

---

Tested on: UO-31 renal
Test: NCI tumour cell line growth inhibition, 48 h
Test Readout: log10 of TGI (log10 of the value in µM)
Hello, just confirming the data are log10 of TGI with units of µM.

{"Compound": "COC(=O)[C@@]12OC[C@]34C([C@@H](O)C1O)[C@@]1(C)CC(=O)C(O)=C(C)C1C[C@H]3OC(=O)[C@H](OC(=O)CC(C)C(F)(F)F)[C@H]42 (stereo partly specified)", "Readout Number": 0.03}

List reported log10 of TGI for each of these compounds:
1. O=Cc1cc2c(o1)C(=O)c1ccccc1C2=O
2. Cn1cc(-c2ccc(CNc3cc(-c4cnc5cc(OCCCN6CCCC6)ccn45)ncn3)cc2)cn1

## Output
1. 0.66
2. 0.45

Items follow; give log10 of TGI for each.
1. COc1ccc2c(c1)C(=O)c1c-2n(CCCN2CCOCC2)c(=O)c2ccccc12
2. CCCCCCCC(=O)N/N=C/c1ccc(Sc2nccn2C)c([N+](=O)[O-])c1
3. CC(C)OC(=O)c1ccc2[nH]c(O)c(C(=Nc3ccc(N(C)C(=O)CN4CCN(C)CC4)cc3)c3ccccc3)c2c1
4. COc1ccc(/C=C(\NC(=O)c2ccccc2)C(=O)NN(C)c2ccnc3cc(Cl)ccc23)cc1OC

## Output
[0.51, 1.36, 0.12, 1.91]
